# 12.5 ng mRNA, 3.9 nM sgRNA Avg % Edit listing for each entry below
system: TTR; test: TTR editing in primary cyno hepatocytes treated with LNP formulated Spy Cas9 mRNA (SEQ ID NO: 2) and sgRNAs (Tables 17, 18); format: cell-based, cynomolgus monkey; settings: Table 17, LNP formulated Spy Cas9 mRNA (SEQ ID NO: 2) and sgRNA, 12.5 ng mRNA, 3.9 nM sgRNA, 72 hours
Strand notation (5' to 3'): a small letter for the sugar, then the base; units joined by * are phosphorothioate-linked, units joined directly phosphodiester-linked; [ ] holds rarer units or linkages, { } end groups; capitals alone tell only the bases. m = 2'-O-methyl; r = 2'-OH (RNA)

Which 12.5 ng mRNA, 3.9 nM sgRNA Avg % Edit value belongs to G000482: TTR sgRNA modified sequence, Human, SEQ ID No. 89; guide sequence of CR003365 (nucleic acid) guide: mU*mG*mU*rArGrArArGrGrGrArUrArUrArCrArArArGrGrUrUrUrUrArGrAmGmCmUmAmGmAmAmAmUmAmGmCrArArGrUrUrArArArArUrArArGrGrCrUrArGrUrCrCrGrUrUrArUrCrAmAmCmUmUmGmAmAmAmAmAmGmUmGmGmCmAmCmCmGmAmGmUmCmGmGmUmGmCmU*mU*mU*mU ?
26.13%

Which 12.5 ng mRNA, 3.9 nM sgRNA Avg % Edit value belongs to G000498: TTR sgRNA modified sequence, Human, SEQ ID No. 105; guide sequence of CR003359 (nucleic acid) guide: mA*mG*mU*rGrArGrUrCrUrGrGrArGrArGrCrUrGrCrArGrUrUrUrUrArGrAmGmCmUmAmGmAmAmAmUmAmGmCrArArGrUrUrArArArArUrArArGrGrCrUrArGrUrCrCrGrUrUrArUrCrAmAmCmUmUmGmAmAmAmAmAmGmUmGmGmCmAmCmCmGmAmGmUmCmGmGmUmGmCmU*mU*mU*mU ?
37.90%

Which 12.5 ng mRNA, 3.9 nM sgRNA Avg % Edit value belongs to G000489: TTR sgRNA modified sequence, Human, SEQ ID No. 96; guide sequence of CR003344 (nucleic acid) guide: mU*mU*mU*rGrArCrCrArUrCrArGrArGrGrArCrArCrUrGrUrUrUrUrArGrAmGmCmUmAmGmAmAmAmUmAmGmCrArArGrUrUrArArArArUrArArGrGrCrUrArGrUrCrCrGrUrUrArUrCrAmAmCmUmUmGmAmAmAmAmAmGmUmGmGmCmAmCmCmGmAmGmUmCmGmGmUmGmCmU*mU*mU*mU ?
31.87%

Which 12.5 ng mRNA, 3.9 nM sgRNA Avg % Edit value belongs to G000495: TTR sgRNA modified sequence, Human, SEQ ID No. 102; guide sequence of CR003343 (nucleic acid) guide: mC*mA*mG*rArGrGrArCrArCrUrUrGrGrArUrUrCrArCrGrUrUrUrUrArGrAmGmCmUmAmGmAmAmAmUmAmGmCrArArGrUrUrArArArArUrArArGrGrCrUrArGrUrCrCrGrUrUrArUrCrAmAmCmUmUmGmAmAmAmAmAmGmUmGmGmCmAmCmCmGmAmGmUmCmGmGmUmGmCmU*mU*mU*mU ?
0.73%
